Source: the supplement of paper PMC10567573

B1: KLHDC10 (parent)
chain: FGGTGIPFGESNGNGVHVCNVKYK

Variants of: B1
test_name: protein stability index of a GFP-peptide fusion (GPS, HEK-293T) (PSI 1-6); higher = more stable;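 note: lentivirally expressed fusions sorted by FACS into six bins by GFP to DsRed ratio, PSI derived from sequencing read proportions per bin multiplied by bin number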
test_conditions: c terminus: a fixed tail appended
The label depends only on protein stability index: Met if it is at least 2, Not met if it is smaller.

## Input Given G3V , state whether its protein stability index is at least 2.
## Output Met

## Input Quick check: does N12S have protein stability index greater than or equal to 2?
## Output Not met

## Input Is it the case that C19Q has protein stability index reaching or exceeding 2?
## Output Met

## Input Quick check, protein stability index >= 2? E10R
## Output Met

## Input Hi, just wondering whether N14F shows protein stability index of 2 or higher.
## Output Not met

## Input Has G9R a recorded protein stability index greater than or equal to 2?
## Output Not met

## Input Reported protein stability index reaches at least 2 for F8N ?
## Output Met

## Input # bool: protein stability index of V21T >= 2
## Output Met

## Input Has N20I a recorded protein stability index greater than or equal to 2?
## Output Not met

## Input Quick check, protein stability index >= 2? V16E
## Output Met

## Input Is reported protein stability index greater than or equal to 2 here: K24T
## Output Met

## Input # check: protein stability index of G3M is greater than or equal to 2
## Output Met

## Input Does protein stability index meet or surpass 2 for N20S ?
## Output Not met

## Input Decide: is the reported value of protein stability index for G2Y equal to or greater than 2?
## Output Met

## Input Assess whether reported protein stability index for C19Y sits at 2 or higher.
## Output Met

## Input Hi, just wondering whether C19N shows protein stability index of 2 or higher.
## Output Met

## Input Determine whether this variant has protein stability index no lower than 2: V18H
## Output Met

## Input Identify whether the reported protein stability index of the following variant is 2 or greater: G9T
## Output Not met

## Input Quick check, protein stability index >= 2? I6S
## Output Not met

## Input Determine whether measured protein stability index meets or exceeds 2 for F1Q
## Output Met
